Target: Histone deacetylase 6 (Homo sapiens)
Sequence (Q9UBN7 whole entry): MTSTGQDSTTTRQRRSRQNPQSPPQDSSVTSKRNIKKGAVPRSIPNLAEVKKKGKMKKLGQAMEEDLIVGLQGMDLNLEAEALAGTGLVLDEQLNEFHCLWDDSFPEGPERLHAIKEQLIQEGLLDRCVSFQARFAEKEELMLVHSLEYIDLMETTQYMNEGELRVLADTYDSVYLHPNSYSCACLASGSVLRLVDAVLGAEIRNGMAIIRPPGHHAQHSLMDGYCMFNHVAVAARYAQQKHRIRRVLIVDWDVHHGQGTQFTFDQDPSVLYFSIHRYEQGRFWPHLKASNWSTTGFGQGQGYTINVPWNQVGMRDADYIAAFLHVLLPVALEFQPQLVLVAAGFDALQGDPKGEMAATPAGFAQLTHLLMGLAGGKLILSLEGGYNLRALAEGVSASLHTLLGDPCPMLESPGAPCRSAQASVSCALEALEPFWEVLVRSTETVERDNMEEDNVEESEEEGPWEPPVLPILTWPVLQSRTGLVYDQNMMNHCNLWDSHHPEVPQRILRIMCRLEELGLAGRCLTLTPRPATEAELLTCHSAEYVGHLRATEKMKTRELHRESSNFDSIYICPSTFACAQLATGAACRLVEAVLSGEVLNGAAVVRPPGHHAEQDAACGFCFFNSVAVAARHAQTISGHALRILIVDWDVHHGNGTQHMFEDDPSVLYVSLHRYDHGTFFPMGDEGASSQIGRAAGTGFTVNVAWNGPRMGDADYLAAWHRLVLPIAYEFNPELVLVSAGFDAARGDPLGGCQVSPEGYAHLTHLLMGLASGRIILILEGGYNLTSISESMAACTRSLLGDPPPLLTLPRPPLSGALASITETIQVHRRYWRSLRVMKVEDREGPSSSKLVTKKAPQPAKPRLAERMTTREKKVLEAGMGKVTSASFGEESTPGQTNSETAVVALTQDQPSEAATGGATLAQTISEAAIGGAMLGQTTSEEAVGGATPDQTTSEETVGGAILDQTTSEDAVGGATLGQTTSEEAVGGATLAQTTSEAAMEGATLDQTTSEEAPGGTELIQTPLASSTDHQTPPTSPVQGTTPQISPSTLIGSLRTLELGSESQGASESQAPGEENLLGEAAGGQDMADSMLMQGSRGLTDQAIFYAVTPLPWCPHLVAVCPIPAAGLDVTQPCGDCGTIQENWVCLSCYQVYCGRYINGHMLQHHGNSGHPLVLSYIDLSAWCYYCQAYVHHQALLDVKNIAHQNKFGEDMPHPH
Assay: Inhibition of recombinant full-length human N-terminal GST-tagged HDAC6 expressed in baculovirus infected Sf9 insect cells using fluorescent-labelled Arg-His-Lys-Lys(Ac) as substrate measured after 2 hrs by fluorescence assay
property: IC50 (nM)
Give bare numbers, in nM.

Look at this compound and give its reported IC50. Cc1c(CN)c2ccccc2n1-c1ccc(C(=O)NO)cc1
1.5

From: BindingDB's records for doi:10.1016/j.ejmech.2018.08.073
